Where these numbers come from: the supplement of paper PMC10681739

// values below are reported ETS1 binding intensity
Biological target: ETS1 (UniProt P14921)
Sequence: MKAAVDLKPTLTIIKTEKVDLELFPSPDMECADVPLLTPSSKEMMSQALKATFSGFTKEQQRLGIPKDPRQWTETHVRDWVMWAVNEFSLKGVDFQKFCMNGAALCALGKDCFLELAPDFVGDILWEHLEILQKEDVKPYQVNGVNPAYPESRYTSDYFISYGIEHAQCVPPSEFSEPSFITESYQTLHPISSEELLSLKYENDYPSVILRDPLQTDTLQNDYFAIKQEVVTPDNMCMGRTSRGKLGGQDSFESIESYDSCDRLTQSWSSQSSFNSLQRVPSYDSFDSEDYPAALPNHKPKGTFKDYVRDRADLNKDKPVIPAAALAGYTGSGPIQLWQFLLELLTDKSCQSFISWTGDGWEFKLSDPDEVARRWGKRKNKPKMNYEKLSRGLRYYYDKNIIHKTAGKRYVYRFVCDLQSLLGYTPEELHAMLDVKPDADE
Assay: ETS1 binding intensity (PBM fluorescence), ETS1 alone (arbitrary fluorescence units); higher = stronger binding
Conditions: ETS1 concentration 1 nM; RUNX1 concentration 0 nM
Reply: number alone, nothing else.

Residues: GACCCGGCCCGCCCCTTCCGGCCGCAGCGCGGGGCA
Obs value: 704

Q. Which value of ETS1 binding intensity has been reported for "ACACAGAGAGTGAGAGGAAGTGGTTTAGAGATGAGA" in the records?
A. 2440

Q. "ATCAGTCAACTTCCCCCACTCCCTCCCACAAAGAAA" , same question.
A. 1010

Q. "CTGTCCGCTACATCCGGGACCTGCGGGACCGCCGAT" , same question.
A. 1770

Q. "CTCGCCCCATTTCCCGTAAATATCAGCCACAGACCA" , same question.
A. 546

Q. "GGACTCTGGCAGGAAGCTGTTTGTGGTTGTCACACC" , same question.
A. 3140

Q. "CGGGGCTTCCGGCGCGCTGCCTTGTGGGCACGGTAG" , same question.
A. 591

Q. "GGAGGAAGGCAGGAAAGAAAGAGGTGGTTTCGGCAC" , same question.
A. 605
